# assay target: wild-type CBX1 chromodomain (human, UniProt P83916 20-73)
# Sequence (P83916 20-73): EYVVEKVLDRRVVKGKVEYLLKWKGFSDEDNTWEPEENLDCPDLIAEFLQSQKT
readout name: pKd
// pKd here means minus log10 of the molar concentration (mol/L)

Using the record for ARTKQTARKSTGGKA (dimethyl-lysine at 9) [H3K9me2 peptide] , state its measured pKd.
4.74
